Test system: NCI-H226 lung
Assay: NCI-60 one-dose screen, 48 h (100 = growth as untreated, 0 = no growth, -100 = all killed)
Conditions: 10 µM unless noted
About 83,000 compounds went through this panel and 20% of them were active in at least one assay; those are over-represented in the sample as a whole.
I would appreciate it if you labelled entries 1 when growth is 50% or higher, otherwise -1.

smiles.str: NC(=N\N=C/c1ccc(Cl)cc1Cl)/C(N)=N\N=C/c1ccc(Cl)cc1Cl
target.entity: NCI-H226 lung
label: 1

smiles.str: O=C(Nc1ncc(Cc2ccccc2)s1)c1ccc2c(c1)OCCO2
target.entity: NCI-H226 lung
label: -1

smiles.str: C=CC(=O)Nc1ccc2ncnc(Nc3cccc(NS(=O)(=O)CCC)c3Cl)c2c1
target.entity: NCI-H226 lung
label: -1

smiles.str: Cn1cc(-c2ccc3occ(-c4cccc(-c5ccncc5)c4)c3n2)cn1
target.entity: NCI-H226 lung
label: -1

smiles.str: O=C1c2ccccc2-c2c1c1ccncc1c(=O)n2CCCn1ccnc1
target.entity: NCI-H226 lung
label: 1

smiles.str: O=c1oc2ccccc2cc1-c1nn(-c2ccccc2)cc1/C=N/Nc1nc(-c2ccccc2)c(N=Nc2ccccc2)s1
target.entity: NCI-H226 lung
label: 1

smiles.str: CC1(C)CC[C@]2(CO)CC[C@]3(C)C(=CC[C@@H]4[C@@]5(C)CCNCC(C)(C)[C@@H]5CC[C@]43C)[C@@H]2C1
target.entity: NCI-H226 lung
label: 1

smiles.str: COc1ccc(-c2csc(NC(=O)CSc3nc(C)cc(=O)[nH]3)n2)cc1
target.entity: NCI-H226 lung
label: 1

smiles.str: Clc1ccc2c(NCCCn3cnc4c(N5CCCC5)nc(Cl)nc43)ccnc2c1
target.entity: NCI-H226 lung
label: 1
